Experiment: Spectral properties of selected fluorinated fluoresceins and rhodols
Assay type: physicochemical
Conditions: emission maximum
Kindly state Em. for each of the entries shown.
Response body: numeric value in nm, unit text excluded.

Given item `O=C1OC2(c3cc(F)c(O)cc3Oc3cc(O)c(F)cc32)c2ccccc21` , the value recorded as its Em. is 513

Given item `[N-]=[N+]=Nc1c(F)c(F)c2c(c1F)C1(OC2=O)c2ccc(O)cc2Oc2cc(O)ccc21` , the value recorded as its Em. is 527

Given item `O=C(O)CSc1c(F)c(F)c2c(c1F)C1(OC2=O)c2cc(F)c(O)cc2Oc2cc(O)c(F)cc21` , the value recorded as its Em. is 526

Given item O=C1OC2(c3ccc(O)cc3Oc3cc(O)ccc32)c2ccccc21 [fluorescein, reference compound] , the value recorded as its Em. is 514

Given item `O=C1OC2(c3ccc(O)cc3Oc3cc(O)ccc32)c2c(F)c(F)c(F)c(F)c21` , the value recorded as its Em. is 527
